Origin of values: patent US20080045535A1

# experimental system: HEK 293 GPR73 (prokineticin 1 receptor) expressing cells (Homo sapiens, UniProt Q8TCW9)
# Construct: expressed in transfected cells; host or cells: HEK 293
# Sequence (Q8TCW9 whole entry): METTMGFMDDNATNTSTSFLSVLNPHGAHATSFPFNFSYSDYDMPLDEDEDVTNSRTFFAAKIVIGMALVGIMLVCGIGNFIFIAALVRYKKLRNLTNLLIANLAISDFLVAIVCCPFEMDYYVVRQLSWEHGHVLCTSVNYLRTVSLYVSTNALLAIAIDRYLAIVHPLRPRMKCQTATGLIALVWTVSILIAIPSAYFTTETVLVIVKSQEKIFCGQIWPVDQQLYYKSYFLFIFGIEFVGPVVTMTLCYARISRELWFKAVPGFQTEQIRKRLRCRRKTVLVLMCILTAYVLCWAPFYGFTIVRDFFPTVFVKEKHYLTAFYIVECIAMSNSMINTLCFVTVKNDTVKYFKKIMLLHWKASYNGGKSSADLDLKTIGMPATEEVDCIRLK
# method: PK1 functional assay: screening for PK1 antagonists on the FLIPR (calcium fluorescence)
# Assay type: cell-based
# condition: compound at 10 μM, HEK 293 GPR73 cells, multiple values = repeat tests, 10 µM
endpoint name: Ca^2+ Mobilization % Inh @10 μM (%)

>  <molecular string>
N=C(N)NCCNc1nc(=O)n(Cc2ccccc2)c(=O)n1Cc1ccc(OC(F)F)cc1

>  <Ca^2+ Mobilization % Inh @10 μM (%)>
91

$$$$
>  <molecular string>
COc1ccc(Cn2c(NCCNC(=N)Nc3ccc(F)cc3)nc(=O)n(Cc3ccc(F)cc3)c2=O)cc1

>  <Ca^2+ Mobilization % Inh @10 μM (%)>
99

$$$$
>  <molecular string>
COc1ccc(Cn2c(NCCCCNC(=N)N)nc(=O)n(Cc3ccc(Cl)c(Cl)c3)c2=O)cc1

>  <Ca^2+ Mobilization % Inh @10 μM (%)>
86

$$$$
>  <molecular string>
COc1ccc(Cn2c(NCCNC(=N)Nc3ccc(C)cc3)nc(=O)n(Cc3ccc(F)cc3)c2=O)cc1

>  <Ca^2+ Mobilization % Inh @10 μM (%)>
102

$$$$
>  <molecular string>
CNC(=N)NCCNc1nc(=O)n(Cc2ccc(F)cc2)c(=O)n1Cc1ccc(OC)cc1

>  <Ca^2+ Mobilization % Inh @10 μM (%)>
99

$$$$
>  <molecular string>
CCN(CCNc1nc(=O)n(Cc2ccc(Cl)c(Cl)c2)c(=O)n1Cc1ccc(OC)cc1)C(=N)N

>  <Ca^2+ Mobilization % Inh @10 μM (%)>
100

$$$$
>  <molecular string>
COc1ccc(Cn2c(NCCNC(=N)N)nc(=O)n(Cc3ccc(Cl)cc3)c2=O)cc1

>  <Ca^2+ Mobilization % Inh @10 μM (%)>
103

$$$$

---

# experimental system: HEK 293 GPR73 (prokineticin 1 receptor) expressing cells (Homo sapiens)
# method: PK1 functional assay: screening for PK1 antagonists on the FLIPR (calcium fluorescence)
# condition: HEK 293 GPR73 cells, PK1 ligand at EC50, multiple values = repeat tests, read-out: Ca^2+ Mobilization IC50
pIC50: −log10 of the molar value.
endpoint name: pIC50

>  <compound>
N=C(N)NCCNc1nc(=O)n(Cc2ccc(Cl)cc2)c(=O)n1Cc1ccoc1 [Cpd 150]

>  <endpoint name>
pIC50

>  <endpoint result>
5.73

$$$$
>  <compound>
N=C(N)NCCNc1nc(=O)n(Cc2ccc(Cl)cc2)c(=O)n1Cc1ccco1

>  <endpoint name>
pIC50

>  <endpoint result>
5.74

$$$$

---

# experimental system: HEK 293 GPR73 (prokineticin 1 receptor) expressing cells (Homo sapiens)
# Construct: expressed in transfected cells; host or cells: HEK 293
# method: PK1 functional assay: screening for PK1 antagonists on the FLIPR (calcium fluorescence)
# Assay type: cell-based
# condition: HEK293, compound at 10 μM, HEK 293 GPR73 cells, multiple values = repeat tests, read-out: Ca^2+ Mobilization % Inh @10 μM
endpoint name: inhibition at 10 µM (%)

Please review the following examples before continuing.
>  <molecule>
COc1ccc(Cn2c(NCCNC(=N)NCC3CCCO3)nc(=O)n(Cc3ccc(Cl)c(Cl)c3)c2=O)cc1 (centres unmarked)

>  <inhibition at 10 µM / %>
100

$$$$
>  <molecule>
COC(=O)c1cccc(Cn2c(=O)nc(NCCNC(=N)N)n(Cc3ccc(OC)cc3)c2=O)c1

>  <inhibition at 10 µM / %>
48

$$$$
>  <molecule>
COc1ccc(Cn2c(NCCNC(=N)Nc3ncccn3)nc(=O)n(Cc3ccc(F)cc3)c2=O)cc1

>  <inhibition at 10 µM / %>
100

$$$$
>  <molecule>
COc1ccc(Cn2c(=O)nc(NCCNC(=N)N)n(CC3CCC(OC)CC3)c2=O)cc1 (centres unmarked)

>  <inhibition at 10 µM / %>
61

$$$$
>  <molecule>
COc1ccc(Cn2c(NCCNC(=N)Nc3ccc(F)cc3F)nc(=O)n(Cc3ccc(F)cc3)c2=O)cc1

>  <inhibition at 10 µM / %>
101

$$$$

[a] CCOC(=O)c1ccc(NC(=N)NCCNc2nc(=O)n(Cc3ccc(F)cc3)c(=O)n2Cc2ccc(OC)cc2)cc1
[b] COc1ccc(Cn2c(NCCNC(=N)NCCCN3CCOCC3)nc(=O)n(Cc3ccc(F)cc3)c2=O)cc1
[in] // task: argmin of inhibition at 10 µM over [ a , b ] Pick one; state its label.
[out] b

---

# experimental system: HEK 293 GPR73 (prokineticin 1 receptor) expressing cells (Homo sapiens)
# Construct: expressed in transfected cells; host or cells: HEK 293
# method: PK1 functional assay: screening for PK1 antagonists on the FLIPR (calcium fluorescence)
# Format: cell-based
# condition: HEK293, compound at 10 μM, HEK 293 GPR73 cells, multiple values = repeat tests, read-out: Ca^2+ Mobilization % Inh @10 μM
endpoint name: inhibition at 10 µM (%)

Please review the following examples before continuing.
>  <compound>
COc1ccc(Cn2c(NCCNC(=N)N3CCOCC3)nc(=O)n(Cc3ccc(F)cc3)c2=O)cc1

>  <experimental system>
HEK 293 GPR73 (prokineticin 1 receptor) expressing cells (Homo sapiens)

>  <inhibition at 10 µM, %>
89

$$$$
>  <compound>
COc1ccc(Cn2c(NCCNC(=N)Nc3ccc(O)cc3)nc(=O)n(Cc3ccc(F)cc3)c2=O)cc1

>  <experimental system>
HEK 293 GPR73 (prokineticin 1 receptor) expressing cells (Homo sapiens)

>  <inhibition at 10 µM, %>
100

$$$$
>  <compound>
COc1ccc(Cn2c(NCCNC(=N)Nc3ccc(C(F)(F)F)cc3)nc(=O)n(Cc3ccc(Cl)c(Cl)c3)c2=O)cc1

>  <experimental system>
HEK 293 GPR73 (prokineticin 1 receptor) expressing cells (Homo sapiens)

>  <inhibition at 10 µM, %>
100

$$$$
>  <compound>
COc1ccc(Cn2c(NCCNC(=N)N)nc(=O)n(CC3CCCC3)c2=O)cc1

>  <experimental system>
HEK 293 GPR73 (prokineticin 1 receptor) expressing cells (Homo sapiens)

>  <inhibition at 10 µM, %>
74

$$$$

[a] COc1ccc(Cn2c(N[C@@H]3CCCC[C@@H]3NC(=N)N)nc(=O)n(Cc3ccc(Cl)c(Cl)c3)c2=O)cc1 (racemic)
[b] N=C(N)NCCNc1nc(=O)n(Cc2ccccc2)c(=O)n1Cc1cccc(C(F)(F)F)c1
[in] // task: argmin of inhibition at 10 µM over [ a , b ] Pick one; state its label.
[out] b
(b: 52%, a: 92%)

[a] CCCCn1c(=O)nc(NCCNC(=N)N)n(Cc2ccc(OC)cc2)c1=O
[b] CCCNC(=N)NCCNc1nc(=O)n(Cc2ccc(F)cc2)c(=O)n1Cc1ccc(OC)cc1
[in] For the two items a and b , which reports the higher inhibition at 10 µM value? Pick one; state its label.
[out] b

---

# experimental system: HEK 293 GPR73 (prokineticin 1 receptor) expressing cells (Homo sapiens, UniProt Q8TCW9)
# method: PK1 functional assay: screening for PK1 antagonists on the FLIPR (calcium fluorescence)
# condition: HEK 293 GPR73 cells, PK1 ligand at EC50, multiple values = repeat tests, read-out: Ca^2+ Mobilization IC50
endpoint name: IC50 (nM)

Please review the following examples before continuing.
>  <compound>
COc1ccc(Cn2c(NCCNC(=N)NC3C4CC5CC(C4)CC3C5)nc(=O)n(Cc3ccc(F)cc3)c2=O)cc1 (stereo not drawn) [Cpd 126]

>  <IC50 (nM)>
115

$$$$
>  <compound>
COc1ccc(Cn2c(N[C@@H]3CCCC[C@@H]3NC(=N)N)nc(=O)n(Cc3ccc(Cl)c(Cl)c3)c2=O)cc1 (racemic) [Cpd 42]

>  <IC50 (nM)>
281

$$$$
>  <compound>
COc1ccc(Cn2c(NCCN(C(=N)N)c3ccccn3)nc(=O)n(Cc3ccc(F)cc3)c2=O)cc1 [Cpd 104]

>  <IC50 (nM)>
11

$$$$

[a] COc1ccc(Cn2c(NCCCNC(=N)N)nc(=O)n(Cc3ccc(Cl)c(Cl)c3)c2=O)cc1 [Cpd 68]
[b] CC(=O)Nc1ccc(Cn2c(NCCNC(=N)N)nc(=O)n(Cc3ccc(Cl)c(Cl)c3)c2=O)cc1 [Cpd 50]
[in] For the two items a and b , which reports the higher IC50 value? Pick one; state its label.
[out] a

[I] COCCCNC(=N)NCCNc1nc(=O)n(Cc2ccc(F)cc2)c(=O)n1Cc1ccc(OC)cc1 [Cpd 115]
[II] CCNC(=N)NCCNc1nc(=O)n(Cc2ccc(F)cc2)c(=O)n1Cc1ccc(OC)cc1 [Cpd 155]
[in] For the two items I and II , which reports the higher IC50 value? Pick one; state its label.
[out] I

[A] COc1ccc(Cn2c(NCCNC(=N)Nc3ccccc3SC)nc(=O)n(Cc3ccc(F)cc3)c2=O)cc1 [Cpd 133]
[B] COc1ccc(Cn2c(NCCNC(=N)N)nc(=O)n(Cc3ccc([N+](=O)[O-])cc3)c2=O)cc1 [Cpd 95]
[C] COc1ccc(Cn2c(NCCNC(=N)N)nc(=O)n(Cc3cccc(OC)c3)c2=O)cc1 [Cpd 20]
[in] Order the records by IC50, with each subsequent value no larger than the one before. A complete answer lists every label in the requested sequence.
[out] C, A, B
(C: 3690 nM, A: 200 nM, B: 84 nM)

[1] C=CCNC(=N)NCCNc1nc(=O)n(Cc2ccc(F)cc2)c(=O)n1Cc1ccc(OC)cc1 [Cpd 152]
[2] N=C(N)NCCNc1nc(=O)n(Cc2ccc(Cl)cc2)c(=O)n1Cc1ccc(N)cc1 [Cpd 122]
[in] For the two items 1 and 2 , which reports the higher IC50 value? Pick one; state its label.
[out] 2

[I] COc1ccc(Cn2c(NCCNC(=N)Nc3cccnc3)nc(=O)n(Cc3ccc(Cl)c(Cl)c3)c2=O)cc1 [Cpd 75]
[II] COc1ccc(Cn2c(NCCNC(=N)NN)nc(=O)n(Cc3ccc(F)cc3)c2=O)cc1 [Cpd 93]
[in] // task: argmin of IC50 over [ I , II ] Pick one; state its label.
[out] I
(I: 36 nM, II: 227 nM)

[P] COc1ccc(Cn2c(NCCNC(=N)N)cc(=O)n(Cc3ccccc3)c2=O)cc1 [Cpd 81]
[Q] NC(N)=NCCNc1nc(=O)n(Cc2ccc(Cl)cc2)c(=O)n1Cc1ccccc1 [Cpd 129]
[in] For the two items P and Q , which reports the higher IC50 value? Pick one; state its label.
[out] Q

[1] COc1ccc(Cn2c(C(=O)NCCNC(=N)N)cc(=O)n(Cc3ccc(OC)cc3)c2=O)cc1 [Cpd 157]
[2] COc1ccc(Cn2c(NCCNC(=N)NCC3CCCO3)nc(=O)n(Cc3ccc(Cl)c(Cl)c3)c2=O)cc1 (stereo not drawn) [Cpd 64]
[in] For the two items 1 and 2 , which reports the higher IC50 value? Pick one; state its label.
[out] 1
(1: 197 nM, 2: 72 nM)
